# Lookup of reported Viability (%) at different lipid concentrations, mean keyed by entry
# System: HepG2 cell line
# Protocol notes: In vitro toxicity study on HepG2 cell line (resazurin, viability and IC50)
# Assay type: cell-based, human
# Protocol conditions: HepG2 cells, 100 μM lipid, 48 h post-treatment, resazurin, relative to ethanol vehicle controls

Known results for compounds:
{"Compound": "CCCCC/C=C\\C/C=C\\CCCCCCCCOC(CCCCCCC/C=C\\C/C=C\\CCCCC)O[Si](C)(C)OCCCCCCN(CCCCO)CCCCO (stereo not drawn)", "Obs value": "68.2%"}
{"Compound": "CCCCCCCC/C=C\\CCCCCCCCOC(=O)C(C)(C)CC(OCCCCCCCC/C=C\\CCCCCCCC)O[Si](C)(C)OCCCCCCN(C)CC(O)CO (stereo not drawn)", "Obs value": "98.9%"}

**Query** Name the reported Viability (%) at different lipid concentrations, mean value associated with the compound CCCCCCCC/C=C\CCCCCCCC(OCC(CCCCCCCC)SCCCCC)O[Si](C)(C)OCCCCCCN(CCO)CCO (stereo not drawn)
**Result** 100.3%

----------
Property: Zeta potential (mV); scope: individual compounds
# Protocol notes: LNP size, PDI and zeta potential by Dynamic Light Scattering (Method A)
# Assay type: physicochemical
# Protocol conditions: LNP formulated with the lipid, DLS
Write the value in mV as a bare number.

Study these solved cases before continuing.
{"Compound": "CCCCCCCC/C=C\\CCCCCCCC(OCC(CCCCCCCC)SCCCCCCCCCC)O[Si](C)(C)OCCCCCCN(CCO)CCO (stereo not drawn) [Example 73]", "Units label": "mV", "Zeta potential (mV)": "−17.46"}
{"Compound": "CCCCC/C=C\\C/C=C\\CCCCCCCCOC(CCCCCCC/C=C\\C/C=C\\CCCCC)O[Si](C)(C)OCCCCCCN(C)CC(O)CO (stereo not drawn) [Example 59]", "Units label": "mV", "Zeta potential (mV)": "−8.941"}
{"Compound": "CCCCC/C=C\\C/C=C\\CCCCCCCCOC(CCCCCCC/C=C\\C/C=C\\CCCCC)O[Si](C)(C)OCCCCCCN(CCO)CCO (stereo not drawn) [Example 48]", "Units label": "mV", "Zeta potential (mV)": "−7.501"}

**Query** // returns reported Zeta potential (mV) for input CCCCC/C=C\C/C=C\CCCCCCCCOC(CCCCCCC/C=C\C/C=C\CCCCC)O[Si](C)(C)OCCCCCCN1CCCCC1CO (stereo not drawn) [Example 64]
**Result** −9.226

**Query** Quick one: CCCCC/C=C\C/C=C\CCCCCCCCOC(CCCCCCC/C=C\C/C=C\CCCCC)O[Si](C)(C)OCCCCCCN(C)Cc1cn(C2[C@H](O)O[C@H](CO)[C@@H](O)[C@@H]2O)nn1 (stereo partly drawn) [Example 68]
**Result** −6.380

**Query** Continue with CCCCC/C=C\C/C=C\CCCCCCCCOC(CCCCCCC/C=C\C/C=C\CCCCC)O[Si](C)(C)O[Si](C)(C)CCCCCCN(CCO)CCO (stereo not drawn) [Example 82]
**Result** −16.31

**Query** How about this compound: CCCCCCCC/C=C\CCCCCCCCOC(=O)C(C)(C)CC(OCCCCCCCC/C=C\CCCCCCCC)O[Si](C)(C)OCCCCCCN(CCCCO)CCCCO (stereo not drawn) [Example 86]
**Result** −13.69

**Query** How about CCCCC/C=C\C/C=C\CCCCCCCCOC(CCCCCCC/C=C\C/C=C\CCCCC)O[Si](C)(C)OCCCCCCN1CCOCC1 (stereo not drawn) [Example 55] ?
**Result** −10.81

**Query** Note, next up: CCCCC/C=C\C/C=C\CCCCCCCCOC(CC[C@@H](C)C1CCC2C3CCC4C[C@H](OC)CC[C@]4(C)C3CC[C@@]21C)O[Si](C)(C)OCCCCCCN(CCO)CCO (stereo partly drawn) [Example 52]
**Result** −9.231

**Query** Can you check CCCCCCCC/C=C\CCCCCCCCOC(=O)C(C)(C)CC(OCCCCCCCC/C=C\CCCCCCCC)O[Si](C)(C)OCCCCCCN1CCCCC1 (stereo not drawn) [Example 87] next?
**Result** −12.28

**Query** What about this compound? CCCCCCCC/C=C\CCCCCCCCOC(=O)C(C)(C)CCC(OCCCCCCCC/C=C\CCCCCCCC)O[Si](C)(C)OCCCCCCN(CCO)CCO (stereo not drawn) [Example 94]
**Result** −12.89

**Query** What do you get for CCCCCCCC/C=C\CCCCCCCCOC(=O)C(C)(C)CC(OCCCCCCCC/C=C\CCCCCCCC)O[Si](C)(C)OCCCCCCN(C)CCCCO (stereo not drawn) [Example 91] ?
**Result** −15.27
